- Test system: velvetleaf (Abutilon theophrasti)
- experimentDescription: Test A pre-/postemergence plant response
- Format: in vivo
- conditionContext: Preemergence, 125 g ai/ha; 0 to 100 scale, 0 = no effect, 100 = complete control
Label rule, in plain words: Plant response rating, Velvetleaf of 40 and up is yes, under 40 is no.

>>> print(df.to_string())
                                linenotation  classlabel
 0  O=C1CCCC(O)=C1C(=O)c1cnc(-c2cccc(F)c2)n(CCC(F)(F)F)c1=O         yes
 1  CCCn1c(-c2ccc3ccccc3c2)ncc(C(=O)C2=C(O)CCCC2=O)c1=O          no
 2  COCCCn1c(-c2cccc(C)c2)ncc(C(=O)C2=C(O)CCCC2=O)c1=O         yes
 3  Cc1ccc(-c2ncc(C(=O)C3=C(O)CCCC3=O)c(=O)n2-c2ccccc2)cc1         yes
 4  CCCCCCc1ncc(C(=O)C2=C(O)CCCC2=O)c(=O)n1-c1ccccc1         yes
 5  CCc1ccc(-n2c(-c3ccccc3)ncc(C(=O)C3=C(O)CCCC3=O)c2=O)cc1          no
 6  CCc1ccc(-n2c(-c3cccc(Br)c3)ncc(C(=O)C3=C(O)CCCC3=O)c2=O)cc1          no
 7  CCCn1c(-c2cccc(Cl)c2)ncc(C(=O)C2=C(O)CCCC2=O)c1=O         yes
 8  C=CCCn1c(-c2ccccc2)ncc(C(=O)C2=C(O)CCCC2=O)c1=O         yes
 9  O=C1CCCC(O)=C1C(=O)c1cnc(-c2ccccc2)n(C2CCCCCCCCCCC2)c1=O          no
10  CCc1cccc(-c2ncc(C(=O)C3=C(O)CCCC3=O)c(=O)n2C2CCCCC2)c1          no
11  Cc1c(Cl)cccc1-n1c(-c2ccccc2)ncc(C(=O)C2=C(O)CCCC2=O)c1=O         yes
12  COCCCn1c(-c2cc(F)cc(F)c2)ncc(C(=O)C2=C(O)CCCC2=O)c1=O         yes
13  O=C1CCCC(O)=C1C(=O)c1cnc(-c2ccccc2)n(-c2cccc(Br)c2)c1=O         yes
14  Cc1ccc(-n2c(-c3ccccc3)ncc(C(=O)C3=C(O)CCCC3=O)c2=O)c(C)c1          no
15  Cc1ccc(C)c(-n2c(-c3ccccc3)ncc(C(=O)c3cnoc3C3CC3)c2=O)c1          no

* * *

- System: corn (Zea mays)
- experimentDescription: Test B pre-/postemergence plant response
- Type: in vivo
- conditionContext: Postemergence, 62 g ai/ha; scale 0 (no effect) to 100 (complete control); 13 to 15 days
Entries and their measured Plant response rating, Corn follow.
measuredParameter: Plant response rating, Corn

>>> print(df.to_string())
                                   compound  measurementtarget            measuredparameter  result
0  CCCCc1ncc(C(=O)C2=C(O)CCCC2=O)c(=O)n1-c1cccc(C)c1 [Compound 63]    corn (Zea mays)  Plant response rating, Corn      20
1  Cc1ccccc1-n1c(-c2ccccc2)ncc(C(=O)C2=C(O)CCCC2=O)c1=O [Compound 12]    corn (Zea mays)  Plant response rating, Corn      30
2  O=C1CCCC(O)=C1C(=O)c1cnc(-c2cccc(Cl)c2)n(-c2ccc(Cl)cc2)c1=O [Compound 64]    corn (Zea mays)  Plant response rating, Corn      85
3  O=C1CCCC(O)=C1C(=O)c1cnc(-c2ccccc2)n(-c2cccc(Br)c2)c1=O [Compound 38]    corn (Zea mays)  Plant response rating, Corn      70

From: patent US8952024B2
